Molecular target: MLEΔG (UniProt P24785 1-1158)
Test: fluorescence polarization
recorded-endpoint: pIC50
Answers are plain numbers, as −log10 of the molar value.

Requested read-out: pIC50. Entry: CCUCUUUCUUUC (ssRNA) [UUC RNA (fluorescein)]
6.52
